Sourced from PubChem BioAssay (NCATS)

test: qHTS for Inhibitors of the Aldehyde Dehydrogenase Family (ALDH1A2, ALDH1A3, ALDH2, ALDH3A1) (AID 2061307); conditions: ALDH inhibition qHTS; series mostly up to 50.3 µM; note: nearly all actives have a fitted effect of over 50% in size
Results filed as inconclusive are left out. The source made the active and inactive calls. Calls come from the whole dose curve; as a rule, active = well fitted inhibition curve with a large enough effect; inconclusive = small, poorly fitted or top-dose-only effect; inactive = no such curve, though single readings can be large or run the other way.
Your answer must be one of the following: active, inactive

Cc1cccc(C)c1OCC(N)C(C)C (stereo not given) ... inactive
COc1cccc(-n2cc(C(=O)Nc3cccc(C(F)(F)F)c3)c3ccccc3c2=O)c1 ... active

Now consider a different molecule.
**Q:** Record lookup: outcome of this test for `CC(C)N1CCc2c(sc(NC(=O)C(F)(F)F)c2-c2nc3ccccc3s2)C1` ?
**A:** active

====

molecular target: Cellular tumor antigen p53 (Homo sapiens); experiment: Primary qHTS for small molecule compounds that upregulate eGFP-tagged delta133p53alpha (in N-terminal) cells. (AID 2060322); settings: NCI-H358 eGFP-delta133p53alpha fluorescence, 24 h; hits give high values;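 note: cells pre-induced with doxycycline then dosed without doxycycline; 0% = DMSO vehicle and 100% = reference activator; nearly all actives have a fitted effect of over 75% in size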
Results filed as inconclusive are left out.
measuredQuantity: activation (%)
Note: unit % is implicit; provide only the numeric part.

CCCCC1CCN(CCCC(=O)c2ccccc2C)CC1 ... 17
CC(C)Cc1ccc(CC(=O)O)cc1 ... -36.8
O=Nc1ccc2oc(=O)ccc2c1 ... -33.9
C[Se]CCC(N)C(=O)O (centres undefined) ... -7.89
O=C(Nc1cccc([N+](=O)[O-])c1)c1cccc(S(=O)(=O)N2CCCCCC2)c1 ... 1.67

**Q:** Consider the compound `COc1ccc(CCO[C@@H]2O[C@H](CO[C@@H]3OC[C@H](O)[C@H](O)[C@H]3O)[C@@H](O)[C@H](O)[C@H]2O)cc1` and give its measured activation.
**A:** -20.6

**Q:** Consider the compound C=C(C)[C@H]1CC[C@]2(C(=O)O)CC[C@]3(C)C(CCC4[C@@]5(C)CCC(=O)C(C)(C)C5CC[C@]43C)C12 (some centres undefined) and give its measured activation.
**A:** -11.6

**Q:** Consider the compound `O=C(c1ccccn1)N(Cc1cccs1)C1(C(=O)NC2CCCCC2)CCCCC1` and give its measured activation.
**A:** -1.67

**Q:** Consider the compound CC1(C)CC[C@]2(C(=O)O[C@@H]3O[C@H](CO)[C@@H](O)[C@H](O)[C@H]3O)CC[C@]3(C)C(=CCC4[C@@]5(C)CC[C@H](O[C@@H]6O[C@H](C(=O)O)[C@H](O)[C@H](O)[C@H]6O)C(C)(C)C5CC[C@]43C)[C@@H]2C1 (some centres undefined) and give its measured activation.
**A:** -2.68

====

molecular target: Cellular tumor antigen p53 (Homo sapiens); experiment: Primary qHTS for small molecule compounds that upregulate eGFP-tagged delta133p53alpha (in N-terminal) cells. (AID 2060322); settings: NCI-H358 eGFP-delta133p53alpha fluorescence, 24 h; hits give high values;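 note: cells pre-induced with doxycycline then dosed without doxycycline; 0% = DMSO vehicle and 100% = reference activator; nearly all actives have a fitted effect of over 75% in size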
Inconclusive results are not listed. Numbered stars: 1 amine (or outer) side, 2 acyl side, 3 side chain; on linkers, the order of the positions; unused ones are H or OH. Square brackets hold non-standard residues; d marks the D form. Peptide text beside a SMILES is read from it. X10 = O=C(C(CC(O)CO)O[*:1])[*:2]; NMeV = CN[CH](C(=O)O)C(C)C; NMeA = CN[CH](C)C(=O)O; βAla = NCCC(=O)O
Items are presented alongside their recorded activation.
Note: unit % is implicit; provide only the numeric part.

Record excerpt, results attached:
COc1cc(C2c3cc(O)c(OC)cc3CC(CO)C2CO)ccc1O (centres undefined) ... 8.93
CCc1c(C)nc2c(-c3cnn(-c4cc(CO)ccn4)c3)c[nH]n2c1=O ... 5.67
CN1CCC[C@@H]1CCO[C@](C)(c1ccccc1)c1ccc(Cl)cc1 ... 26.6
O=C(N/N=C/c1ccc([N+](=O)[O-])o1)c1ccc(O)cc1 ... 24.3
CC1(C)CCC(C)(C)c2cc(C3(c4ccc(C(=O)O)cc4)OCCO3)ccc21 ... 2.39
Cn1nnc(-c2ccc(-c3ccc(N4C[C@H](COP(=O)(O)O)OC4=O)cc3F)cn2)n1 ... -3.67

**Q:** Consider the compound `COc1cc(-c2ccc(=O)[nH]n2)ccc1OC(F)F` and give its measured activation.
**A:** 2.51

**Q:** Consider the compound CCC(C)C1NC(=O)C2CCCN2C(=O)C(CC(O)CO)OC(=O)CCNC(=O)C(C)N(C)C(=O)C(C(C)C)N(C)C1=O (centres undefined) (cyclo([X10]PI[NMeV][NMeA][βAla]); configuration not given here) and give its measured activation.
**A:** -16

**Q:** Consider the compound `C=C(C)[C@@]1(O)C[C@@]2(C)C(=CC1=O)CC[C@@H](O)[C@@H]2C` and give its measured activation.
**A:** -3.82
